Origin of measurements: PubChem BioAssay AID720535

assay_name: qHTS for Inhibitors of TGF-b: Cytotox Counterscreen for Cherry Picks; further: nearly all actives have a fitted effect of over 70% in size
test_context: HepG2 CAGA-GFP viability, ATP luminescence, 18 h, cells stimulated with TGF-beta, 500 pg/mL; series mostly up to 46.1 µM
Out of some 1,600 compounds screened, about 420 (26%) were called active. Roughly 40% stayed inconclusive and do not appear here. The call rests on the fitted dose curve; in most records, active means well fitted inhibition curve with a large enough effect; inconclusive means small, poorly fitted or top-dose-only effect; inactive means flat fitted curve, though single readings scatter. Many of the other results were omitted from the sample, so actives are more common in it than they were.
Can you answer with just one of these options? active, inactive

Query: Any idea what this test logged for `COc1ccc(-c2onc(C)c2-c2ccc3c(c2)OCCO3)c(O)c1` ?
Result: inactive

Query: What would you report for `O=C(NC1=CC(=O)c2ccccc2C1=O)c1ccccc1` ?
Result: active

Query: What would you report for `CCCc1cc(-c2n[nH]c(=S)n2CC)c2ccccc2n1` ?
Result: inactive

Query: What would you report for `FC(F)(F)c1ccccc1Cc1c(-c2ccccc2)nc2c3ccccc3ccn12` ?
Result: inactive

Query: What would you report for `CN(C)c1nc(=Nc2cccc(Cl)c2)ss1` ?
Result: inactive

Here is another compound to look at.
Query: Any idea what this test logged for `COc1ccc(C)cc1S(=O)(=O)N1CCN(S(=O)(=O)c2cc(C(=O)O)ccc2C)CC1` ?
Result: inactive
